SPOT peptide array binding signal intensity by entry:
target: SpPex13; test: SPOT peptide array binding signal intensity (averaged, normalized) (arbitrary units (background-subtracted, floor 0; scale differs between SH3 domains)); higher = stronger binding of the SH3 domain to the peptide
Property Measured: SPOT peptide array binding signal intensity

# Binder, Result
data = [
    ("VNFRRIPTGPDSPPT", "≤ 0"),
    ("EQEEIAPSLPSRNSI", "≤ 0"),
    ("PSPSSSPPPIPKTAN", "≤ 0"),
    ("NNQRRKPLLLNIGDH", "≤ 0"),
    ("GPPPPLPPPLFPSSS", "≤ 0"),
]
